assay: Half life in rat at 0.5 mg/kg, iv and 1 mg/kg, po; format: ADME, organism-based; conditions: in vivo

Structure As Smiles: Cc1ccc2c(N3CCN(CCc4cccc5c4OCC(=O)N5C)CC3)cc(F)cc2n1
Unit Tag: h
half-life: 1.4
--
Structure As Smiles: Cc1ccc2c(N3CCN(CCCc4cccc5c4OCC(=O)N5C)CC3)cccc2n1
Unit Tag: h
half-life: 1.5
--
Structure As Smiles: Cc1ccc2c(N3CCN(CCc4cccc5c4OCC(=O)N5C)[C@@H](C)C3)cccc2n1
Unit Tag: h
half-life: 0.8
--
Structure As Smiles: Cc1ccc2c(N3CCN(CCc4cccc5c4OCC(=O)N5C)CC3)cccc2n1
Unit Tag: h
half-life: 1
--
Structure As Smiles: Cc1ccc2c(N3CCN(CCc4cccc5c4OCC(=O)N5)CC3)cccc2n1
Unit Tag: h
half-life: 5.2

###

system: Liver microsomes; assay: Intrinsic clearance in human liver microsomes; assay type: ADME, Microsome
The compounds listed here are annotated with their CL.
Result Type: CL (mL/min/g)

Structure As Smiles: Cc1ccc2c(N3CCN(CCc4cccc5c4OCC(=O)N5C)CC3)cccc2n1
Result Type: CL
Result Modifier: =
Observed Result: 2.4
//
Structure As Smiles: Cc1ccc2c(N3CCN(CCCc4cccc5c4OCC(=O)N5C)CC3)cccc2n1
Result Type: CL
Result Modifier: =
Observed Result: 2.1
//
Structure As Smiles: Cc1ccc2c(N3CCN(CCc4cccc5c4OCC(=O)N5)CC3)cccc2n1
Result Type: CL
Result Modifier: =
Observed Result: 1
//
Structure As Smiles: Cc1ccc2c(N3CCN(CCc4cccc5c4OCC(=O)N5C)CC3)cc(F)cc2n1
Result Type: CL
Result Modifier: =
Observed Result: 3.2
//
Structure As Smiles: Cc1ccc2c(N3CCN(CCc4ccc5c(c4)N(C)C(=O)CO5)CC3)cccc2n1
Result Type: CL
Result Modifier: =
Observed Result: 1.1
//
Structure As Smiles: Cc1ccc2c(N3CCN(CCc4cccc5c4OCC(=O)N5C)[C@@H](C)C3)cccc2n1
Result Type: CL
Result Modifier: =
Observed Result: 3.5
//
Structure As Smiles: Cc1ccc2c(N3CCN(CCc4ccc5c(c4)NC(=O)CO5)CC3)cccc2n1
Result Type: CL
Result Modifier: <
Observed Result: 0.5

###

test: Oral bioavailability in rat 1 mg/kg; assay type: ADME, organism-based; details: in vivo
Result Type: bioavailability

Structure As Smiles: Cc1ccc2c(N3CCN(CCc4cccc5c4OCC(=O)N5)CC3)cccc2n1
Observed Result: 63%

Structure As Smiles: Cc1ccc2c(N3CCN(CCc4cccc5c4OCC(=O)N5C)CC3)cc(F)cc2n1
Observed Result: 41%

Structure As Smiles: Cc1ccc2c(N3CCN(CCc4cccc5c4OCC(=O)N5C)[C@@H](C)C3)cccc2n1
Observed Result: 31%

Structure As Smiles: Cc1ccc2c(N3CCN(CCc4cccc5c4OCC(=O)N5C)CC3)cccc2n1
Observed Result: 26%

###

assay: Ratio of drug level in rat brain to plasma at 0.5 mg/kg, iv and 1 mg/kg, po; type: ADME, organism-based

Structure As Smiles: Cc1ccc2c(N3CCN(CCc4cccc5c4OCC(=O)N5C)CC3)cc(F)cc2n1
Kp: 1.1

Structure As Smiles: Cc1ccc2c(N3CCN(CCc4cccc5c4OCC(=O)N5C)[C@@H](C)C3)cccc2n1
Kp: 1.9

Structure As Smiles: Cc1ccc2c(N3CCN(CCCc4cccc5c4OCC(=O)N5C)CC3)cccc2n1
Kp: 2.9

###

The molecules listed here are annotated with their clearance.
test: Clearance in rat blood at 0.5 mg/kg, iv and 1 mg/kg, po; assay type: ADME, organism-based; conditions: whole blood

Structure As Smiles: Cc1ccc2c(N3CCN(CCc4cccc5c4OCC(=O)N5C)CC3)cc(F)cc2n1
clearance [mL/min/kg]: 21

Structure As Smiles: Cc1ccc2c(N3CCN(CCCc4cccc5c4OCC(=O)N5C)CC3)cccc2n1
clearance [mL/min/kg]: 55

Structure As Smiles: Cc1ccc2c(N3CCN(CCc4cccc5c4OCC(=O)N5C)CC3)cccc2n1
clearance [mL/min/kg]: 29

Structure As Smiles: Cc1ccc2c(N3CCN(CCc4cccc5c4OCC(=O)N5)CC3)cccc2n1
clearance [mL/min/kg]: 8

Structure As Smiles: Cc1ccc2c(N3CCN(CCc4cccc5c4OCC(=O)N5C)[C@@H](C)C3)cccc2n1
clearance [mL/min/kg]: 44
